// protein stability index lookup, one value per entry
B1: TRIM15 (parent)
chain: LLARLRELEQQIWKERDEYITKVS

Variants of: B1
Assay: protein stability index of a GFP-peptide fusion (GPS, HEK-293T) (PSI 1-6); higher = more stable;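 also: lentivirally expressed fusions sorted by FACS into six bins by GFP to DsRed ratio, PSI derived from sequencing read proportions per bin multiplied by bin number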
Details: c terminus: a fixed tail appended
endpoint-label: protein stability index

input-sequence: LLARLRELEQQIWHERDEYITKVS
measured-result: 1.67

input-sequence: LLARLRELEQQIWKERDEYITKVF
measured-result: 1.51

input-sequence: LLQRLRELEQQIWKERDEYITKVS
measured-result: 1.9

input-sequence: LLARLRELEQQIWKERDEYINKVS
measured-result: 1.7

input-sequence: LLARLRELERQIWKERDEYITKVS
measured-result: 2.02

input-sequence: LLARLRELEQQIWIERDEYITKVS
measured-result: 2.26

input-sequence: LLARLRELEPQIWKERDEYITKVS
measured-result: 1.4

input-sequence: LLARLRELEQQIWKERDEYIAKVS
measured-result: 2.07

input-sequence: LLARLRELEQQIWKERDEYDTKVS
measured-result: 2.11

input-sequence: LLAWLRELEQQIWKERDEYITKVS
measured-result: 2.67

input-sequence: LLARLREDEQQIWKERDEYITKVS
measured-result: 2.48

input-sequence: LLARLRELEQQIWKERDEYITIVS
measured-result: 1.78

input-sequence: LLARLREYEQQIWKERDEYITKVS
measured-result: 2.22

input-sequence: LLARLRELEQQIWKERDEYITKQS
measured-result: 1.71

input-sequence: LLARLRELEQQIWKERDEYITKHS
measured-result: 1.86

input-sequence: LLARLRELEQQIWKERDEYITKVV
measured-result: 3

input-sequence: LLARLRELWQQIWKERDEYITKVS
measured-result: 1.69

input-sequence: LLERLRELEQQIWKERDEYITKVS
measured-result: 3.27

input-sequence: LLARLRELHQQIWKERDEYITKVS
measured-result: 1.45

input-sequence: LLARLRELEQQIWKERDEYITGVS
measured-result: 2.25

input-sequence: LLARLRELEQQIWKERDEYIHKVS
measured-result: 1.49

input-sequence: LLARLRELEQQIWKERDEDITKVS
measured-result: 2.12

input-sequence: LLARLRELEQQIWKERDENITKVS
measured-result: 1.91

input-sequence: LLARLRELFQQIWKERDEYITKVS
measured-result: 3.06

input-sequence: LLARLRELENQIWKERDEYITKVS
measured-result: 2.35

input-sequence: LLARLRELEQQIWKERDEEITKVS
measured-result: 1.39

input-sequence: LHARLRELEQQIWKERDEYITKVS
measured-result: 2.13

input-sequence: HLARLRELEQQIWKERDEYITKVS
measured-result: 2.19

input-sequence: LLARLRELEQQIWKERDEYITTVS
measured-result: 1.43

input-sequence: LLARVRELEQQIWKERDEYITKVS
measured-result: 2.95

input-sequence: LLARLRELEQQIWKRRDEYITKVS
measured-result: 1.05

input-sequence: LLARLRELETQIWKERDEYITKVS
measured-result: 1.09

input-sequence: LLARLRELEQQIWKERREYITKVS
measured-result: 2.14

input-sequence: LLARLREIEQQIWKERDEYITKVS
measured-result: 2.51

input-sequence: LLARLRELEQQIWKERDEYIIKVS
measured-result: 2.45

input-sequence: LLARLRELQQQIWKERDEYITKVS
measured-result: 1.07

input-sequence: LLARLRELEQQIWKERDEYITRVS
measured-result: 2.46

input-sequence: LLARLRELEQQIWKERDEYILKVS
measured-result: 2.39

input-sequence: LLARLRELEQNIWKERDEYITKVS
measured-result: 1.68

input-sequence: LLARLRELEQQIWKERDEYITKSS
measured-result: 2.25

input-sequence: CLARLRELEQQIWKERDEYITKVS
measured-result: 1.84

input-sequence: LLARLRELEQQIWKERDEYITKVK
measured-result: 1.44

input-sequence: LLARLRELEQQCWKERDEYITKVS
measured-result: 1.42

input-sequence: LLARLRELEQQIWKELDEYITKVS
measured-result: 3.68

input-sequence: LLARLRELEQQIWKERDEYETKVS
measured-result: 4.11

input-sequence: LLARLRELEQQIHKERDEYITKVS
measured-result: 1.37

input-sequence: LLARLRELEQGIWKERDEYITKVS
measured-result: 1.41

input-sequence: LLARLRELEQQIWKEQDEYITKVS
measured-result: 1.58

input-sequence: LLARLRELEQQIWKERDEYITDVS
measured-result: 1.97

input-sequence: LLARLKELEQQIWKERDEYITKVS
measured-result: 2.13

input-sequence: LLARLRLLEQQIWKERDEYITKVS
measured-result: 2.97

input-sequence: LLARLRELLQQIWKERDEYITKVS
measured-result: 1.8

input-sequence: LLDRLRELEQQIWKERDEYITKVS
measured-result: 2.18

input-sequence: LLARLRELEIQIWKERDEYITKVS
measured-result: 2.65

input-sequence: LYARLRELEQQIWKERDEYITKVS
measured-result: 4.12

input-sequence: LWARLRELEQQIWKERDEYITKVS
measured-result: 2.23

input-sequence: LVARLRELEQQIWKERDEYITKVS
measured-result: 1.74

input-sequence: LLARLRELEQQAWKERDEYITKVS
measured-result: 1.88

input-sequence: LLARLRELEDQIWKERDEYITKVS
measured-result: 2.21

input-sequence: LLARLRELEQQIWKERDEYITKPS
measured-result: 1.26

input-sequence: LLARLRQLEQQIWKERDEYITKVS
measured-result: 1.61

input-sequence: LLARLRELEQQIWPERDEYITKVS
measured-result: 2.2

input-sequence: LFARLRELEQQIWKERDEYITKVS
measured-result: 1.67

input-sequence: NLARLRELEQQIWKERDEYITKVS
measured-result: 3.22

input-sequence: LLARLRELEMQIWKERDEYITKVS
measured-result: 3.32

input-sequence: LLARLRELEQMIWKERDEYITKVS
measured-result: 1.08

input-sequence: LLARLRELEQQIWKEYDEYITKVS
measured-result: 2.13

input-sequence: LLARLRELEQQIWKERDEYITKVI
measured-result: 2.42

input-sequence: LLARLRELEQQLWKERDEYITKVS
measured-result: 1.67

input-sequence: LLARLRELEQQIWKERDEYPTKVS
measured-result: 1.6

input-sequence: PLARLRELEQQIWKERDEYITKVS
measured-result: 2.37

input-sequence: LLARLRELEQQDWKERDEYITKVS
measured-result: 2.75

input-sequence: LIARLRELEQQIWKERDEYITKVS
measured-result: 1.65

input-sequence: LLARLRELEQQRWKERDEYITKVS
measured-result: 2.21

input-sequence: LLARLRELEQQIWKEMDEYITKVS
measured-result: 1.61

input-sequence: LLARLRELEQQIWKERDEYITKDS
measured-result: 3.9

input-sequence: LLARLRENEQQIWKERDEYITKVS
measured-result: 2.03

input-sequence: LLARLRELEQDIWKERDEYITKVS
measured-result: 2.36

input-sequence: LLARLRELEFQIWKERDEYITKVS
measured-result: 3.2

input-sequence: LLARLRELEQQQWKERDEYITKVS
measured-result: 2.34

input-sequence: LLARLRELEQQIWKERDNYITKVS
measured-result: 2.08

input-sequence: LLARLRELEQQIWKERDEMITKVS
measured-result: 2.21

input-sequence: LLARLRELEQQIWKERQEYITKVS
measured-result: 3.32

input-sequence: LLARLRELEQQIWKERYEYITKVS
measured-result: 3.07

input-sequence: LLARMRELEQQIWKERDEYITKVS
measured-result: 1.83

input-sequence: LLARLRELEQQIWKFRDEYITKVS
measured-result: 2.15

input-sequence: LLARLRELEQQIWKERDEYITKVM
measured-result: 2.12

input-sequence: LLARLRDLEQQIWKERDEYITKVS
measured-result: 1.6

input-sequence: LLARLRELEQQIWKERDEYITKCS
measured-result: 2.1

input-sequence: LLARLRELEQQHWKERDEYITKVS
measured-result: 1.8

input-sequence: LLARLRELEQQIWEERDEYITKVS
measured-result: 1.05
